In this section we review reported PBM E-score values for a set of sequences.
# system_name: Ecm22 (UniProt Q05958)
# Sequence: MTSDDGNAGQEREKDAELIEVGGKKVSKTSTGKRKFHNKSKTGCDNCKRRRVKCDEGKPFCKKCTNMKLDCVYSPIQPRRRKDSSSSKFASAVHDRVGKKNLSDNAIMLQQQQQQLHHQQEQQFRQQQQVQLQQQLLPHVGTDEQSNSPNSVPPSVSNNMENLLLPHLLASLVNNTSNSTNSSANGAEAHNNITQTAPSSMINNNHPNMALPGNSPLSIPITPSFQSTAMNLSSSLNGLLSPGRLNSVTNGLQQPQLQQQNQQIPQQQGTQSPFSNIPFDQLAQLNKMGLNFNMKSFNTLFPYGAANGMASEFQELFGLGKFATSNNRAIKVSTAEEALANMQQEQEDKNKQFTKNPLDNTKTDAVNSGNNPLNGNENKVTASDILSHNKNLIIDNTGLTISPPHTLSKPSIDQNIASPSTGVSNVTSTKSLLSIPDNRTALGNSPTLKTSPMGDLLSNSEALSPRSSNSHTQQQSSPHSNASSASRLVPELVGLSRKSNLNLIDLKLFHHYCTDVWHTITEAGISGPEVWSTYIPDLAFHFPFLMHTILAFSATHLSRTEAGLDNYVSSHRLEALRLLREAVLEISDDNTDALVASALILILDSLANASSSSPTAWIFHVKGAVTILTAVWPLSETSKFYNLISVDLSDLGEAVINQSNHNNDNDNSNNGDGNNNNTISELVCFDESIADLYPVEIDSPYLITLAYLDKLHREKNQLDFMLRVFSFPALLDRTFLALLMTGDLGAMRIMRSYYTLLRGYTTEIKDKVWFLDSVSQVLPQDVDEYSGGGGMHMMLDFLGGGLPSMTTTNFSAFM
# assay_method_text: PBM E-score (8-mer binding enrichment) (E-score (-0.5 to 0.5)); higher = stronger / more preferred TF binding
# run_conditions: protein concentration: 200 nM; construct: GST-full length
In all, about 33,000 sequences were measured (“E-score (-0.5 to 0.5)”: median about -0.041, highest 2% from about 0.37 on). The list comes from a sample in which the highest values are over-represented; it also holds close analogues and randomly drawn sequences.
Note: the reply should be a number with no unit written.

{"residue_sequence": "ACTACTAG", "system_name": "Ecm22 (UniProt Q05958)", "PBM E-score": -0.0821}
{"residue_sequence": "AGCGATAT", "system_name": "Ecm22 (UniProt Q05958)", "PBM E-score": 0.222}
{"residue_sequence": "CGTCCGCC", "system_name": "Ecm22 (UniProt Q05958)", "PBM E-score": -0.111}
{"residue_sequence": "GCAGGGCA", "system_name": "Ecm22 (UniProt Q05958)", "PBM E-score": -0.18}
{"residue_sequence": "AAACGAAG", "system_name": "Ecm22 (UniProt Q05958)", "PBM E-score": 0.457}
{"residue_sequence": "GCATCGTA", "system_name": "Ecm22 (UniProt Q05958)", "PBM E-score": 0.426}
{"residue_sequence": "ACGTTCTA", "system_name": "Ecm22 (UniProt Q05958)", "PBM E-score": 0.0664}
{"residue_sequence": "AGGTCTGC", "system_name": "Ecm22 (UniProt Q05958)", "PBM E-score": -0.195}

Output measured PBM E-score for this item: GCATCGGA 0.126

Output measured PBM E-score for this item: CTGTCGTA 0.453

Output measured PBM E-score for this item: AGAACCCA -0.131
